- System: Rattus norvegicus
- assay_remarks: Inhibition of carrageenan-induced paw edema in Fisher 344 rat at 0.01 […], ip relative to control
- Type: functional
The compounds listed here are annotated with their Inhibition.
Answer in %, number only, no unit symbol.

Some solved entries appear below for comparison.
compound	system_name	unit	Inhibition
COc1ccc2c(c1)c(CC(=O)O)c(C)n2C(=O)c1ccc(Cl)cc1 [INDOMETHACIN]	Rattus norvegicus	%	47
O=C(O)/C=C\c1c(O)ccc2ccccc12	Rattus norvegicus	%	44.1
CC(C)(C)c1cc(/C=C\C(=O)O)c(O)c(C(C)(C)C)c1	Rattus norvegicus	%	45.7
CC(C)(C)c1cc(/C=C(\C(=O)O)c2ccccc2)c(O)c(C(C)(C)C)c1	Rattus norvegicus	%	43.4
O=C(O)/C(=C\c1ccc[nH]1)c1ccccc1	Rattus norvegicus	%	49.8
O=C(O)/C(=C\c1c(O)ccc2ccccc12)c1ccccc1	Rattus norvegicus	%	25.2

Let's switch to this compound now.
Q. Give Inhibition; test system Rattus norvegicus; compound O=C(O)/C=C\c1ccc[nH]1
A. 29.5
